Cited source: paper PMC6271891

# Tested on: M. bovis BCG
# METHOD_NOTES: microbe, parasite or virus in culture
# Type: cell-based
# MEASUREMENT_PARAMETERS: Mycobacterium tuberculosis variant bovis BCG, 336 h, read-out: MIC M. bovis BCG
Task for the reader: assign each of the following compounds its reported MIC.

{"COMPOUND": "CN1CCC(O)(c2ccc(Br)cc2)C(C(=O)c2ccc(Br)cc2)C1 (stereo not shown)", "MIC": "6.3 to 12.5 µg/mL"}
{"COMPOUND": "CC1(C)CC(N2CCC(O)(c3ccccc3)C(C(=O)c3ccccc3)C2)CC(C)(C)N1 (stereo not shown)", "MIC": "6.3 to 12.5 µg/mL"}
{"COMPOUND": "CCCCN1CCC(O)(c2ccccc2)C(C(=O)c2ccccc2)C1 (stereo not shown)", "MIC": "6.3 to 12.5 µg/mL"}

Provide MIC values for the following items, in order.
1. CCN1CCC(O)(c2ccc(F)cc2)C(C(=O)c2ccc(F)cc2)C1 (stereo not shown)
2. O=C(c1ccccc1)C1CN(C2CCCCC2)CCC1(O)c1ccccc1 (stereo not shown)
3. CN1CCC(O)(c2ccc(Cl)cc2)C(C(=O)c2ccc(Cl)cc2)C1 (stereo not shown)

6.3 to 12.5 µg/mL
6.3 to 12.5 µg/mL
6.3 to 12.5 µg/mL

Each compound below has a recorded value; state its MIC.
1. CCN1CCC(O)(c2ccccc2)C(C(=O)c2ccccc2)C1 (stereo not shown)
2. O=C(c1ccccc1)C1CN(C2CCS(=O)(=O)C2)CCC1(O)c1ccccc1 (stereo not shown)
3. O=C(c1ccccc1)C1CN(Cc2ccccc2)CCC1(O)c1ccccc1 (stereo not shown)

1. 6.3 to 12.5 µg/mL
2. 3.1 to 6.3 µg/mL
3. 6.3 to 12.5 µg/mL

Identify measured MIC corresponding to CN1CCC(O)(c2ccccc2)C(C(=O)c2ccccc2)C1 (stereo not shown)
6.3 to 12.5 µg/mL

----------
# TESTED_TARGET: UniProt:B2HIZ6
# Sequence (B2HIZ6 entry or part of it): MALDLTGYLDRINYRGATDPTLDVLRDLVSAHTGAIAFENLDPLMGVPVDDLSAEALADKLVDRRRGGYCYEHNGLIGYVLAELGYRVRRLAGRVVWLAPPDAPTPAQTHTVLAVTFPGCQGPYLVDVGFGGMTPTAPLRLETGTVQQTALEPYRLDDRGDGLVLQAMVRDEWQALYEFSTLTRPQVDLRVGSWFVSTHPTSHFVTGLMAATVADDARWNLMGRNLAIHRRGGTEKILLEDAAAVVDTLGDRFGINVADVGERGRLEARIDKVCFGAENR
# METHOD_NOTES: NAT inhibition assay (CoA formation), MMNAT
# Type: biochemical
# MEASUREMENT_PARAMETERS: 50 μM inhibitor; 150 μM HLZ and 120 μM Ac-CoA; mean ± S.D. of triplicate; read-out: MMNAT % Inhibition
MEASURED_PROPERTY: inhibition at 50 µM (%)
One number for each entry, in %.

{"COMPOUND": "O=C(c1ccccc1)C1CN(Cc2ccccc2)CCC1(O)c1ccccc1 (centres unmarked)", "inhibition at 50 µM [%]": 101}
{"COMPOUND": "CN1CCC(O)(c2ccc(Cl)cc2)C(C(=O)c2ccc(Cl)cc2)C1 (centres unmarked)", "inhibition at 50 µM [%]": 103}
{"COMPOUND": "CCCCN1CCC(O)(c2ccccc2)C(C(=O)c2ccccc2)C1 (centres unmarked)", "inhibition at 50 µM [%]": 102}

Please go through the list and note inhibition at 50 µM for each compound.
1. O=C(c1ccccc1)C1CN(C2CCS(=O)(=O)C2)CCC1(O)c1ccccc1 (centres unmarked)
2. CN1CCC(O)(c2ccc(Br)cc2)C(C(=O)c2ccc(Br)cc2)C1 (centres unmarked)
3. O=C(c1ccccc1)C1CN(C2CCCO2)CCC1(O)c1ccccc1 (centres unmarked)
4. CCN1CCC(O)(c2ccc(F)cc2)C(C(=O)c2ccc(F)cc2)C1 (centres unmarked)
5. CCN1CCC(O)(c2ccccc2)C(C(=O)c2ccccc2)C1 (centres unmarked)

[99, 99, 101, 102, 126]
